Here, compounds appear alongside Ki reported for Muscarinic acetylcholine receptor M1 (Homo sapiens, UniProt P11229) in the literature.
Answers are plain numbers, in nM.

Solved entries (count: 6):
{"COMPOUND": "O=C1Cc2cc(CCN3CCN(c4nsc5ccccc45)CC3)c(Cl)cc2N1", "Ki / nM": 5100}
{"COMPOUND": "CC(C1=C(CCN(C)CCF)Cc2ccccc21)c1ccccn1 (stereo unspecified)", "Ki / nM": 603}
{"COMPOUND": "O=C(CCCNC(=O)CC(c1ccccc1)(c1ccccc1)c1ccccc1)NCCC(=O)NCC1CCCN(CC2CCCCC2)C1 (stereo unspecified)", "Ki / nM": 77}
{"COMPOUND": "Cc1ccc2c(c1)CC(CCN(C)C)=C2C(C)c1ccccn1 (stereo unspecified)", "Ki / nM": 562}
{"COMPOUND": "C#CCCCCCN1CCC(COC(=O)Nc2ccc(F)cc2-c2ccc(F)c(Cl)c2)CC1", "Ki / nM": 1.3}
{"COMPOUND": "C=C(c1ccc(S(=O)(=O)c2ccc(OC)cc2)cc1)C1CCN(C2CCN(S(=O)(=O)c3ccccc3)CC2)CC1", "Ki / nM": 37.4}

Answer for every listed entry: what is its Ki? The entries follow.
1. O=C1CCc2ccccc2N1CCCN1CCC(CCc2ccccc2)CC1
2. CN(CCCC(O)(c1ccccc1)c1ccccc1)CCN(C)CCCC(O)(c1ccccc1)c1ccccc1

[263, 245000]
